molecular target: Liver carboxylesterase (Sus scrofa, UniProt Q29550)
READOUT TYPE: Ki (nM)
Field: numeric (nM). Do not append units.

// Ki lookup, molecule = COC(=O)/C(=N\Nc1ccc(C)cc1)C(=O)C(F)(F)F , result: 14

* * *

Reported IC50, Acetylcholinesterase (Homo sapiens, UniProt P22303).
Field: numeric (µM). Do not append units.

Observe how each entry below is paired with its result.
CCOC(=O)/C(=N\Nc1ccc(C(=O)OCC)cc1)C(=O)C(F)(F)F : 3.79
COC(=O)/C(=N\Nc1ccc(OC)cc1)C(=O)C(F)(F)F : 30.3
COC(=O)/C(=N\Nc1ccccc1)C(=O)C(F)(F)F : 20.1
COC(=O)/C(=N\Nc1ccc(C)cc1)C(=O)C(F)(F)F : 28.3

// IC50 lookup, molecule = CCOC(=O)/C(=N\Nc1ccccc1[N+](=O)[O-])C(=O)C(F)(F)F , result: 0.759

// IC50 lookup, molecule = CCOC(=O)/C(=N\Nc1ccccc1C(=O)OCC)C(=O)C(F)(F)F , result: 0.481

// IC50 lookup, molecule = CCOC(=O)/C(=N\Nc1ccc(F)cc1)C(=O)C(F)(F)F , result: 2.67

// IC50 lookup, molecule = CCOC(=O)/C(=N\Nc1ccccc1)C(=O)C(F)(F)F , result: 3.22

// IC50 lookup, molecule = COC(=O)/C(=N\Nc1ccccc1[N+](=O)[O-])C(=O)C(F)(F)F , result: 20.9

// IC50 lookup, molecule = CCOC(=O)/C(=N\Nc1ccc(C)cc1)C(=O)C(F)(F)F , result: 7.32

// IC50 lookup, molecule = CCOC(=O)/C(=N\Nc1ccc(Br)cc1)C(=O)C(F)(F)F , result: 1.36

// IC50 lookup, molecule = CCOC(=O)/C(=N\Nc1ccc(OC)cc1)C(=O)C(F)(F)F , result: 4.62

// IC50 lookup, molecule = CCOC(=O)/C(=N\Nc1cccc(C)c1)C(=O)C(F)(F)F , result: 30.4

* * *

target: UniProtKB P22303; experiment: Inhibition of human erythrocyte AChE at 20 uM using acetylthiocholine iodide as substrate preincubated for 10 mins followed by substrate addition by Ellman's method relative to control
READOUT TYPE: inhibition

Observe how each entry below is paired with its result.
COC(=O)/C(=N\Nc1ccc(OC)cc1)C(=O)C(F)(F)C(F)(F)C(F)(F)F : 7.1%
CCOC(=O)/C(=N\Nc1ccc(C)cc1)C(C)=O : 6.8%
CCOC(=O)/C(=N\Nc1ccc(C)cc1)C(=O)C(F)(F)C(F)(F)F : 11.5%
CCOC(=O)/C(=N\Nc1ccc(C)cc1)C(=O)C(F)F : 18.2%
CC(=O)/C(=N\Nc1ccc(C)cc1)C(=O)C(F)(F)F : 11%

// inhibition lookup, compound = COC(=O)/C(=N\Nc1ccc(C)cc1)C(=O)C(F)F , result: 5.8%

// inhibition lookup, compound = CCOC(=O)/C(=N\Nc1ccc(C)cc1)C(=O)C(F)(F)C(F)(F)C(F)(F)F , result: 23.6%

// inhibition lookup, compound = Cc1ccc(N/N=C(\C(=O)c2ccccc2)C(=O)C(F)(F)F)cc1 , result: 9.1%

// inhibition lookup, compound = CCOC(=O)/C(=N\Nc1ccc(C)cc1)C(=O)C(F)(F)C(F)(F)C(F)(F)C(F)(F)F , result: 17.2%

* * *

Target: Liver carboxylesterase (Sus scrofa, UniProt Q29550)
Sequence (Q29550 whole entry): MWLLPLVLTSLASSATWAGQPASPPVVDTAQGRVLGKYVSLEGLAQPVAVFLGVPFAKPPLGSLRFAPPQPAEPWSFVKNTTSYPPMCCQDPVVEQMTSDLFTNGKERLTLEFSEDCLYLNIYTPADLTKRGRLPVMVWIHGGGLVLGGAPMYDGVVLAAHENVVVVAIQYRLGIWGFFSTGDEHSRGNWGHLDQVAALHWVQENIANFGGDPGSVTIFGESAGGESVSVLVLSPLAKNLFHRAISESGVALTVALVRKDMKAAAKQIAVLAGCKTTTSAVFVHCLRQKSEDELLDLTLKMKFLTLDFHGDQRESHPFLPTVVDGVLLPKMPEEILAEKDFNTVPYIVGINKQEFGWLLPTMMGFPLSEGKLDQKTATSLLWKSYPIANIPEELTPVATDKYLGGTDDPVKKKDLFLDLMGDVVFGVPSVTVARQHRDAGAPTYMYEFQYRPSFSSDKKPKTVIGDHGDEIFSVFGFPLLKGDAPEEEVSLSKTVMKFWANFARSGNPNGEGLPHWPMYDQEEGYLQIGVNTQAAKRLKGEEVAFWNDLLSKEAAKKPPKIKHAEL
READOUT TYPE: pIC50
// pIC50 is dimensionless: -log10 of concentration (M)

CCOC(=O)/C(=N\Nc1ccc(Br)cc1)C(=O)C(F)(F)F : 8.29
CCOC(=O)/C(=N\Nc1ccc(C)cc1)C(=O)C(F)F : 5.49

// pIC50 lookup, molecule = CCOC(=O)/C(=N\Nc1ccc(C(=O)OCC)cc1)C(=O)C(F)(F)F , result: 7.33

// pIC50 lookup, molecule = CCOC(=O)/C(=N\Nc1ccccc1C(=O)OCC)C(=O)C(F)(F)F , result: 7.38

// pIC50 lookup, molecule = CCOC(=O)/C(=N\Nc1ccc(C)cc1)C(=O)C(F)(F)C(F)(F)C(F)(F)F , result: 6.99

// pIC50 lookup, molecule = CCOC(=O)/C(=N\Nc1ccc(F)cc1)C(=O)C(F)(F)F , result: 8.15

* * *

target: Liver carboxylesterase (Sus scrofa, UniProt Q29550); assay: Inhibition of porcine liver carboxylesterase at 20 uM using 4-NPA as substrate preincubated for 10 mins followed by substrate addition by spectrophotometric analysis relative to control; assay type: tissue-based; settings: pig, probe 4-NPA
READOUT TYPE: inhibition at 20 µM (%)
Field: numeric (%). Do not append units.

# inhibition at 20 µM measured on Liver carboxylesterase (Sus scrofa, UniProt Q29550) for item CCOC(=O)/C(=N\Nc1ccc(C)cc1)C(C)=O = 12.1

* * *

Listing of recorded pIC50 by entry.
experiment: Antioxidant activity assessed as decrease in ABTS radical cation scavenging activity incubated for 24 hrs by UV-Vis spectrophotometric analysis; format: functional
// pIC50 is dimensionless: -log10 of concentration (M)

Observe how each entry below is paired with its result.
CCOC(=O)/C(=N\Nc1ccc(C)cc1)C(=O)C(F)(F)C(F)(F)F : 4.26
CCOC(=O)/C(=N\Nc1ccc(C)cc1)C(=O)C(F)(F)C(F)(F)C(F)(F)F : 4.21
Oc1ccccc1O [CATECHOL] : 4.79
COC(=O)/C(=N\Nc1ccc(C)cc1)C(=O)C(F)(F)F : 4.67
CCOC(=O)/C(=N\Nc1ccc(C)cc1)C(=O)C(F)(F)F : 4.67

// pIC50 lookup, molecule = CCOC(=O)/C(=N\Nc1ccc(C(=O)OCC)cc1)C(=O)C(F)(F)F , result: 3.71

// pIC50 lookup, molecule = Cc1c(C)c2c(c(C)c1O)CCC(C)(C(=O)O)O2 (stereo unspecified) [TROLOX] , result: 4.69

// pIC50 lookup, molecule = CCOC(=O)/C(=N\Nc1ccc(F)cc1)C(=O)C(F)(F)F , result: 4.45

// pIC50 lookup, molecule = O=C1O[C@H]([C@@H](O)CO)C(O)=C1O [ASCORBIC ACID] , result: 4.67

// pIC50 lookup, molecule = CC(=O)/C(=N\Nc1ccc(C)cc1)C(=O)C(F)(F)F , result: 4.81

// pIC50 lookup, molecule = CCOC(=O)/C(=N\Nc1ccc(C)cc1)C(C)=O , result: 4.28

* * *

biological target: Cholinesterase (Equus caballus); test: Competitive inhibition of equine serum BuChE by double reciprocal Lineweaver-Burk plot analysis
Sequence (P81908 whole entry): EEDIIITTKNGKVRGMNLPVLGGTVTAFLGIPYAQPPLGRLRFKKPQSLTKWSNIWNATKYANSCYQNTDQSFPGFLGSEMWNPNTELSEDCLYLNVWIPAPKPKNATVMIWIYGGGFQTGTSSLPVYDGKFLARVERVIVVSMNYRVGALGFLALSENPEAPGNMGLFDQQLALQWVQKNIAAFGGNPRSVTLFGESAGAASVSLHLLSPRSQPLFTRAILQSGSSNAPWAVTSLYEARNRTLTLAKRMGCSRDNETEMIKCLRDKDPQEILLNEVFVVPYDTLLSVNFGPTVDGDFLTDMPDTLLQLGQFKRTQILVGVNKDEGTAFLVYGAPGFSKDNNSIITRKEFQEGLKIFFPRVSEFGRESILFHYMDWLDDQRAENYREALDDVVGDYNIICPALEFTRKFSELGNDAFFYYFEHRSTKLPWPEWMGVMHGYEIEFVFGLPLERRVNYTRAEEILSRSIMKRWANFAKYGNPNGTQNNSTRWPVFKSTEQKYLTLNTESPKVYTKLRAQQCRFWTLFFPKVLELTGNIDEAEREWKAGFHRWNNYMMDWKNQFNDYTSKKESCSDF
READOUT TYPE: Ki (µM)
Field: numeric (µM). Do not append units.

# Ki measured on Cholinesterase (Equus caballus) for item COC(=O)/C(=N\Nc1ccc(C)cc1)C(=O)C(F)(F)F = 29.2

* * *

target: Liver carboxylesterase 1 (Homo sapiens); test: Inhibition of human recombinant CES1 expressed in baculovirus infected BTI insect cells using 4-NPA as substrate by spectrophotometric analysis
Sequence (P23141 whole entry): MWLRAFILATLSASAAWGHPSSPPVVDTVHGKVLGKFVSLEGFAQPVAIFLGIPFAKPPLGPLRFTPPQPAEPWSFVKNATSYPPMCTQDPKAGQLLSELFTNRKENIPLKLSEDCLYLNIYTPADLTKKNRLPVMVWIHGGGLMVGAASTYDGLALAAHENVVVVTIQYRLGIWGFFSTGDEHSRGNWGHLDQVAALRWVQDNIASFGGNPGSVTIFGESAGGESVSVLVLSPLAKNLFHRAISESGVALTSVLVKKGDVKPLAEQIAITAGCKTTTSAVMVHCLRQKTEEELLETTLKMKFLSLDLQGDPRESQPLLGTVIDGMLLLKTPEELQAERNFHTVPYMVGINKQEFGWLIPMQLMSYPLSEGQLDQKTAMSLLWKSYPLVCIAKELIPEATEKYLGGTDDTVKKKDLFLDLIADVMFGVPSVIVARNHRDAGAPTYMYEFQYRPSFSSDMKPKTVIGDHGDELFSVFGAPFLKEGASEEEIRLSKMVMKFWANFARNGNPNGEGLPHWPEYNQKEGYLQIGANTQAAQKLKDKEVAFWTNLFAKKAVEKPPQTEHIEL
Listing of recorded pIC50 by entry.
// pIC50 is dimensionless: -log10 of concentration (M)

Observe how each entry below is paired with its result.
COC(=O)/C(=N\Nc1ccc(OC)cc1)C(=O)C(F)(F)C(F)(F)C(F)(F)F : 6.95
COC(=O)/C(=N\Nc1ccccc1)C(=O)C(F)(F)F : 7.94
CCOC(=O)/C(=N\Nc1ccc(OC)cc1)C(=O)C(F)(F)F : 8.37
CCOC(=O)/C(=N\Nc1cccc(C)c1)C(=O)C(F)(F)F : 8.29

// pIC50 lookup, compound = CCOC(=O)/C(=N\Nc1ccc(C)cc1)C(=O)C(F)(F)F , result: 8.53

// pIC50 lookup, compound = COC(=O)/C(=N\Nc1ccc(OC)cc1)C(=O)C(F)(F)F , result: 7.67

// pIC50 lookup, compound = CCOC(=O)/C(=N\Nc1ccc(F)cc1)C(=O)C(F)(F)F , result: 7.65

// pIC50 lookup, compound = CCOC(=O)/C(=N\Nc1ccc(Br)cc1)C(=O)C(F)(F)F , result: 7.81

// pIC50 lookup, compound = CCOC(=O)/C(=N\Nc1ccc(C)cc1)C(=O)C(F)(F)C(F)(F)F , result: 7.32

// pIC50 lookup, compound = COC(=O)/C(=N\Nc1ccccc1[N+](=O)[O-])C(=O)C(F)(F)F , result: 6.99

// pIC50 lookup, compound = COC(=O)/C(=N\Nc1ccc(C)cc1)C(=O)C(F)(F)F , result: 7.79

// pIC50 lookup, compound = CCOC(=O)/C(=N\Nc1ccccc1[N+](=O)[O-])C(=O)C(F)(F)F , result: 7.62

// pIC50 lookup, compound = CCOC(=O)/C(=N\Nc1ccccc1)C(=O)C(F)(F)F , result: 8.21
